Reference source: PubChem BioAssay (NCATS)

# Tested on: CP262
# experiment_notes: qHTS profiling for inhibitors of Plasmodium falciparum proliferation (AID 504749); also: nearly all actives have a fitted effect of over 60% in size
# test_settings: P. falciparum in erythrocytes, SYBR Green DNA, 72 h; series mostly up to 28.7 µM
Inconclusive results are not listed. Active and inactive are the calls of the source. Calls follow the shape of the dose curve; as a rule, active = well fitted inhibition curve with a large enough effect; inconclusive = small, poorly fitted or top-dose-only effect; inactive = flat fitted curve, though single readings scatter.
Give one outcome, nothing more. List: active, inactive

The following molecules have reported results that may help.
O=C(O)c1ccc2[nH]cc(CCCCN3CC=C(c4ccccc4)CC3)c2c1: inactive
Fc1ccc(C(OCCN2CCN(CCCc3ccccc3)CC2)c2ccc(F)cc2)cc1: inactive
CCOC(=O)C1(c2ccccc2)CCN(CCC(C#N)(c2ccccc2)c2ccccc2)CC1: active
CN1C[C@H](CNC(=O)OCc2ccccc2)C[C@@H]2c3cccc4c3c(cn4C)C[C@H]21: active
CN1C(=S)CN=C(c2ccccc2)c2cc(Cl)ccc21: inactive

Next item in the queue.
For this molecule, state the assay outcome: CC(=O)Nc1cc([As](=O)(O)O)ccc1O
inactive

---

# experiment_notes: qHTS of pediatric cancer cell lines to identify multiple opportunities for drug repurposing: Primary screen for LAN-5 cells (AID 1347100); also: potency is read from the fitted curve at half-maximal effect
# test_settings: LAN-5 neuroblastoma viability, CellTiter-Glo luminescence, 48 h; series mostly up to 46 µM
Results filed as inconclusive are left out. Activity calls are given as the source filed them. Calls follow the shape of the dose curve; as a rule, active = well fitted cell-killing curve with a large enough effect; inconclusive = small, poorly fitted or top-dose-only effect; inactive = no such curve, though single readings can be large or run the other way.
observable: Potency

Recorded Potency, per entry:
CCOP(=S)(OCC)Oc1cc(C)nc(C(C)C)n1: inactive
OCCOc1ccccc1: inactive
CN1CCN(C(=O)O[C@H]2c3nccnc3C(=O)N2c2ccc(Cl)cn2)CC1: inactive
CC(C)CC(N(C)C)C1(c2ccc(Cl)cc2)CCC1 (stereo not given): inactive
O=C1CC[C@@]2(O)[C@H]3Cc4ccc(O)c5c4[C@@]2(CCN3CC2CC2)[C@H]1O5: inactive
c1ccc2c(c1)OCC(C1=NCCN1)O2 (stereo not given): 26.6 µM (active)
CC1OC(C)OC(C)O1 (stereo not given): inactive
C[C@]12CCC(=O)C(O)=C1CC[C@@H]1[C@@H]2CC[C@]2(C)C(=O)CC[C@@H]12: inactive

Documented Potency of COC[C@H]1OC(=O)c2coc3c2[C@@]1(C)C1=C(C3=O)C2CCC(=O)[C@@]2(C)C[C@H]1OC(C)=O (stereo not given in full) : 11.8 µM (active)

Form field Potency, entry O=C(O)C(=O)c1cn(Cc2ccccc2)c2ccc(-c3ccc(OC(F)(F)F)cc3)cc12 : inactive

---

# test_settings: Ebola virus entry assay, blue channel fluorescence
The source made the active and inactive calls.
Select the correct class. Options are active, inactive and nothing else.

CC(C)NCC(O)COc1cccc2[nH]ccc12 (stereo unspecified): active
COc1ccc(OC)c(C(O)CNC(=O)CN)c1 (stereo unspecified): inactive
OCCN1CCN(CCCN2c3ccccc3Sc3ccc(C(F)(F)F)cc32)CC1: active
COC(=O)C(c1ccccc1Cl)N1CCc2sccc2C1 (stereo unspecified): inactive

Recorded test outcome, item O=C1N=C(O)CN1/N=C/c1ccc(-c2ccc([N+](=O)[O-])cc2)o1
inactive

Any idea what this test logged for COc1ccc(-c2cc(=S)ss2)cc1 ?
inactive

Record request — test call for Cc1ccc(C(=O)c2cc(O)c(O)c([N+](=O)[O-])c2)cc1
inactive

Per the records of this test, what outcome belongs to CN(C)CCCN1c2ccccc2Sc2ccc(Cl)cc21 ?
active

Which outcome did this test record for the compound COc1ccc2c(c1OC)CN1CCc3cc4c(cc3C1C2)OCO4 (stereo unspecified) ?
inactive

Fill in: this test's call for CC#C[C@]1(O)CC[C@H]2[C@@H]3CCC4=CC(=O)CCC4=C3[C@@H](c3ccc(N(C)C)cc3)C[C@@]21C is ___
inactive

Hello, I am checking results. What call was entered for CCCCC(CC)CN=C(N)NC(N)=NCCCCCCN=C(N)NC(N)=NCC(CC)CCCC (stereo unspecified) ?
active

Lab log entry: CN1C[C@H]2c3ccccc3Oc3ccc(Cl)cc3[C@@H]2C1 — outcome as called in the assay?
active

Recorded test outcome, item C[C@]12C/C(=C/O)C(=O)C[C@@H]1CC[C@@H]1[C@@H]2CC[C@@]2(C)[C@H]1CC[C@]2(C)O
inactive

Per the assay record, what outcome was assigned to N[C@@H](Cc1cc(I)c(Oc2cc(I)c(O)c(I)c2)c(I)c1)C(=O)O ?
inactive

Which outcome was assigned to CCCN(CCC)S(=O)(=O)c1ccc(C(=O)O)cc1 in this test?
inactive

Which outcome did this test record for the compound Cc1onc(-c2ccccc2Cl)c1C(=O)N[C@@H]1C(=O)N2[C@@H]1SC(C)(C)[C@@H]2C(=O)O ?
inactive

---

# Test system: TAB165
# experiment_notes: qHTS profiling for inhibitors of Plasmodium falciparum proliferation (AID 504749); also: nearly all actives have a fitted effect of over 60% in size
# test_settings: P. falciparum in erythrocytes, SYBR Green DNA, 72 h; series mostly up to 28.7 µM
Inconclusive results are not listed. Calls of active or inactive are those of the source. The call rests on the fitted dose curve; in most records, active means well fitted inhibition curve with a large enough effect; inconclusive means small, poorly fitted or top-dose-only effect; inactive means flat fitted curve, though single readings scatter.
Give your call using only these classes: yes for active, no for inactive

C=C(C)[C@H]1Cc2c(ccc3c2O[C@@H]2COc4cc(OC)c(OC)cc4[C@@H]2C3=O)O1: no
CC(=O)Nc1cc([As](=O)(O)O)ccc1O: no
CCC1(C2=NCCN2)Cc2ccccc2O1 (stereo unspecified): yes
NN=C(N)N: no

API: the following record is the query input.
Kindly provide the recorded test outcome for the following compound: CCN(CC)CCOC(=O)C(O)(c1ccccc1)c1ccccc1
no

---

# test_settings: Ebola virus entry assay, blue channel fluorescence
Calls of active or inactive are those of the source.
API: response.call in active, inactive

Solved entries:
CNCC[C@@H](Oc1ccccc1C)c1ccccc1: active
CCCCC1=NC2(CCCC2)C(=O)N1Cc1ccc(-c2ccccc2-c2nn[nH]n2)cc1: inactive
O=C(OC1C[C@H]2CC[C@@H](C1)[N+]21CCCC1)C(O)(c1ccccc1)c1ccccc1 (stereo not given in full): inactive
COc1cc2nc(N3CCN(C(=O)C4CCCO4)CC3)nc(N)c2cc1OC (stereo not given): active
Cc1cccc(C)c1NC1=NCCCS1: inactive

Look up the recorded call for Cn1cc[nH]c1=S in this test.
inactive

How was O[C@@H]1CO[C@H]2[C@@H]1OC[C@@H]2O classified in this test?
inactive

For this compound, state the assay outcome: CC(C)(C)NC(=O)[C@H]1CC[C@H]2[C@@H]3CC[C@H]4NC(=O)C=C[C@]4(C)[C@H]3CC[C@]12C
inactive

Outcome logged for CC(C)(C)NC(=O)[C@@H]1CN(Cc2cccnc2)CCN1C[C@@H](O)C[C@@H](Cc1ccccc1)C(=O)N[C@H]1c2ccccc2C[C@H]1O in this assay:
inactive

---

# experiment_notes: S16 Schwann cell PMP22 intronic element firefly luciferase assay (AID 624032); also: nearly all actives have a fitted effect of over 30% in size
# test_settings: S16 rat Schwann cells, PMP22 element FLuc, 24 h; series mostly up to 57.5 µM
Records with an inconclusive call do not appear. Activity calls are given as the source filed them. Calls come from the whole dose curve; as a rule, active = well fitted inhibition curve with a large enough effect; inconclusive = small, poorly fitted or top-dose-only effect; inactive = no such curve, though single readings can be large or run the other way.
Select the matching outcome among 1.0 = active, 0.0 = inactive

A selection of reference data follows.
Cc1ccc(S(=O)(=O)N[C@@H](CCCCN)C(=O)CCl)cc1: 0.0
OCCOc1ccccc1: 0.0
c1ccc2c(c1)Nc1ccccc1S2: 0.0
CC(C)(C)CC(C)(C)c1ccc(O)cc1: 0.0
CCC1(C2=NCCN2)Cc2ccccc2O1 (stereo not drawn): 0.0

Status in this test for O=C(O)c1ccc2[nH]cc(CCCCN3CC=C(c4ccccc4)CC3)c2c1 ?
0.0

GET /call?item= NCC(O)c1ccc(O)cc1 (stereo not drawn) returns the recorded outcome of this test.
1.0

Record lookup: outcome of this test for Nc1ccncc1 ?
0.0

Fill in: this test's call for NCC1(CC(=O)O)CCCCC1 is ___
0.0

Could you please tell me the result logged for O=c1[nH]c2ccccc2n1CCCN1CCC(n2c(=O)[nH]c3cc(Cl)ccc32)CC1 in this assay?
1.0

Query: recorded result category for CCCC(C)(COC(N)=O)COC(=O)NC(C)C (stereo not drawn) in this test
0.0

Lab log entry: Oc1cccc2cccnc12 — outcome as called in the assay?
0.0

For CCC(C(N)=O)N1CCCC1=O (stereo not drawn) , which call appears in the assay record?
0.0

---

# test_settings: Ebola virus entry cell assay, ratio channel
Calls of active or inactive are those of the source.
// classify into active, inactive

Hey, what did the test say about O=c1[nH]cnc2c1ncn2[C@H]1CC[C@@H](CO)O1 ?
inactive

Hi, do you know how CC(=O)Oc1cc2c(s1)CCN(C(C(=O)C1CC1)c1ccccc1F)C2 (stereo not drawn) came out in this test?
inactive

What call does the record list for Clc1ccc(C(c2ccccc2Cl)C(Cl)Cl)cc1 (stereo not drawn) ?
inactive

Call for entry NC1[C@H]2CN(c3nc4c(cc3F)c(=O)c(C(=O)O)cn4-c3ccc(F)cc3F)C[C@@H]12 (stereo partly drawn) :
inactive

Hi, do you know how COc1nc(N)nc2c1ncn2[C@@H]1O[C@H](CO)[C@@H](O)[C@@H]1O came out in this test?
inactive

Hey, what did the test say about CC(=O)N(O)CCCCCNC(=O)CCC(=O)N(O)CCCCCNC(=O)CCC(=O)N(O)CCCCCN ?
inactive

What call does the record list for CC(C)NCC(O)c1ccc(O)c(O)c1 (stereo not drawn) ?
inactive

Could you please tell me the result logged for COC(=O)N[C@H](C(=O)N[C@@H](Cc1ccccc1)[C@@H](O)CN(Cc1ccc(-c2ccccn2)cc1)NC(=O)[C@@H](NC(=O)OC)C(C)(C)C)C(C)(C)C in this assay?
inactive

Which outcome did this test record for the molecule COc1ccc2nc(S(=O)Cc3ncc(C)c(OC)c3C)[nH]c2c1 (stereo not drawn) ?
inactive

Please share the test call associated with CN1CCC(=C2c3ccccc3C=Cc3ccccc32)CC1 .
active

How was CN1C(CCl)Nc2cc(Cl)c(S(N)(=O)=O)cc2S1(=O)=O (stereo not drawn) classified in this test?
inactive

Recorded test outcome, item NCC(CC(=O)O)c1ccc(Cl)cc1 (stereo not drawn)
inactive

Assay result, entry C[C@H]1c2cccc(O)c2C(O)=C2C(=O)[C@]3(O)C(O)=C(C(N)=O)C(=O)[C@@H](N(C)C)[C@@H]3[C@@H](O)[C@@H]21 — outcome?
inactive
